Origin of the recorded values: ChEMBL document CHEMBL1144051

Assay: Dissociation constant, pKa of the compound
Format: physicochemical
Readout label: pKa
Keep it simple and answer with nothing but the number.

Exercise: Data request, read-out pKa, for COc1ccc2c(c[n+](C)c3c4cc5c(cc4ccc23)OCO5)c1O.O.O.O=S(=O)([O-])O
Key: 5.3

----------
Tested on: Mus musculus
Assay: Toxicity against mouse P388 cells xenografted CDF1 mouse assessed as survival time at 50 mg/kg, iv
Format: organism-based
Design: dose 50 mg/kg, route intravenous
Details: in vivo
Each record here notes measured MSD.

Use these answered entries as a reference point.
C[n+]1cc2c3c(ccc2c2ccc4cc5c(cc4c21)OCO5)OCO3.[Cl-] [SANGUINARIUM CHLORIDE]	1.1 days
COc1cc2c(ccc3c4cc(OC)c(OC)cc4c[n+](C)c23)cc1O.[Cl-]	9.5 days
COc1cc2c[n+](C)c3c4cc5c(cc4ccc3c2cc1OC)OCO5.[Cl-] [NITIDINE CHLORIDE]	9.5 days

Exercise: Data request, read-out MSD, for COc1ccc2c(c[n+](C)c3c4cc5c(cc4ccc23)OCO5)c1O.O.O.O=S(=O)([O-])O
Key: 13.2 days
